Recorded values, source the supplement of paper PMC9170038.

Exercise: for every item that follows, state its recorded apparent KD of MS2 coat protein.
tested on: MS2 coat protein; experiment: apparent KD of MS2 coat protein; designed switch direction (-1 OFF switch, 1 ON switch): -1; higher = weaker reporter binding; details: input ligand: none
Numbers only, in nM.

Entry CAGCUGAAUGUGAGGAUAUUACGAGCGAUAGCUCGUGAGAAGGCACAUGAGGAUCACCCAUGUCUCAACAGCUG [BmEx4/2-B4] (Eterna round: R97, puzzle: Brourd's mod of Exclusion 4) : apparent KD of MS2 coat protein on MS2 coat protein = 38.6

MS2 coat protein data for CGCCAUCGAGUGAGGAUAUCAGGUAAAGGUGUACAUGAGAAGGCACUUGAGGAUCACCCAAGUAUUAAAGAAAA [Mareat] (Eterna round: R97, puzzle: Brourd's mod of Exclusion 4) ; its apparent KD of MS2 coat protein: 48.3

# evaluate next
Entry AAACCCUGAGGAUAUACAUAACAACAAAGCCUCACAUGCCAACAUGAGGAUCACCCAUGUAGAAGGCAGGCCAA [Mod R3 Insanara 13 - Jieux - Exclusion 2] (Eterna round: R97, puzzle: Exclusion 2) : apparent KD of MS2 coat protein on MS2 coat protein = 10.1

* * *

system: MS2 coat protein; assay: apparent KD of MS2 coat protein; designed switch direction (-1 OFF switch, 1 ON switch): 1; higher = weaker reporter binding; conditions: input ligand: FMN 200 uM
Recorded Metric: apparent KD of MS2 coat protein

Some entries whose results are on file:
Just so you know, measured apparent KD of MS2 coat protein for UUGCUUCUCGUAGGAUAUGUAGGAUAUUCCUACAUGAGGAUCACCCAUGUUCGCAUGGAAGAAGGACAGAAGGACGAUCACCCU [pwkr ssNG2 2FMN + 1F5.10] (Eterna round: R96, puzzle: Same State NG 2) came out at 330 nM

Entry UUAAUAAUGUAAGGAUAUACAUGAGGAUUUCUCGUAGAAGGUACAGGACAUGAGGAUCACCCAUGUAUCGCUCAGAAGAGCGUA [Mat - Same State NG 1 - JL mod - D24] (Eterna round: R96, puzzle: Same State NG 1) ; apparent KD of MS2 coat protein = 1400 nM

apparent KD of MS2 coat protein recorded for this sequence, GGAAAGAGGUAAGGAUAUGCAUGGCGGAGACAUGAGGAUCACCCAUGUUGGAGACGAAAUCUAGGGUAGAAGGUACAAGGAAGG [AK SSNG2-V2-11] (Eterna round: R96, puzzle: Same State NG 2) , is 133 nM

GET /value?item= AGAUGUUAAUCAGGAUAUGGGCACAUGAGGAUCACCCAUGUAACGUAGAUACGAUGUGGUCAAGUCUAGAAGGGAUAGCUAACA [SameState NG2 #78] (Eterna round: R96, puzzle: Same State NG 2) &field=apparent KD of MS2 coat protein returns 125 nM

Sample GCUCGGCUGAUGGCCCACAUGAGGAUCACCCAUGUGAGUGGGCAGGAUAUCUAGAUUAAGGAUGUAGAGAAGGGCCUGCCGAGC [SameState NG3 #36] (Eterna round: R96, puzzle: Same State NG 3) ; apparent KD of MS2 coat protein observed: 2290 nM

Look up apparent KD of MS2 coat protein for the entries below, preserving their order.
1. UGAAUAGUUACAGGAUAUGAGUUGUAAAUUGGGUCAGAAGGGUGGGUGUUUUGCGCGGUGUGUUACAUGAGGAUCACCCAUGUU [SameState NG1 #28] (Eterna round: R96, puzzle: Same State NG 1)
2. GUUACAUGAGGAUCACCCAUGUAUGUGUGGGAGUAAGUGUCUUAGGAUAUCUGUUAUUUAACUUAAGAGAAGGAAGAUUGUUGU [JMF's solution 43] (Eterna round: R96, puzzle: Same State NG 3)
3. AGUAGUGUAACAUGAGGAUCACCCAUGUAAGUAGAUGUAACCUAGGAUAUGGAUGAUAUGUUAGUCCAGAAGGAGGAUUGUUUA [JR_SSNG3_Sub038] (Eterna round: R96, puzzle: Same State NG 3)
4. CAGCGCUGUCGAGAGGAUAUGCGGUGAUGGACAUGAGGAUCACCCAUGUUAGCGAUAGCAUUACGGUAGAAGGCUCUACAGCUGC [Soteed] (Eterna round: R96, puzzle: Same State 2)
5. GUGGUGGGUUGAGGAUAUUGGUUGUUGUUGUUCCACAUGAGGAUCACCCAUGUGGGUUGUGGUUUUGAGAAGGUUGGUUGCUGG [salish99_SSNG2_r04_050] (Eterna round: R96, puzzle: Same State NG 2)
6. UAUGACUUACAAGGAUAUUAAUAACAUGAGGAUCACCCAUGUGGCUGUGUGUGUUAGAUAAGCUAUAAGAAGGUGUGUGUGUUU [JR_SSNG2_Sub095] (Eterna round: R96, puzzle: Same State NG 2)
7. GUGGUCAGACAUGAGGAUCACCCAUGUGGAAUAAAUAACGUACAGGAUAUUCAAUAUAGGAUAUAGAAGAAGGGUAGAUUGGUG (Eterna round: R96, puzzle: Same State NG 3)

Reply:
1. 81.8 nM
2. 108 nM
3. 20.6 nM
4. 18.7 nM
5. 17.2 nM
6. 66.2 nM
7. 196 nM

* * *

system: MS2 coat protein; test: apparent KD of MS2 coat protein; designed switch direction (-1 OFF switch, 1 ON switch): -1; higher = weaker reporter binding; conditions: input ligand: FMN 200 uM
Recorded Metric: apparent KD of MS2 coat protein (nM)
Give bare numbers, in nM.

Recorded apparent KD of MS2 coat protein for GACUUGUCAGGAUAUCUUACAUUUGCAUCGUAGUUACCGUUGGAGAAGGGACAUGAGGAUCACCCAUGUUUGGC [tap-tap-tappy24] (Eterna round: R97, puzzle: Exclusion 4) on MS2 coat protein was 26.6

Hey, MS2 coat protein data for AGCUUUUUGUUUUUGGGUGACAUGAGGAUCACCCAUGUCUUAUGGGCCCAAUAAUAAUAAAAUAAAAGGGACCCACG [-20.8, -41.27, a 31%] (Eterna round: R97, puzzle: Sensor, turn-off variant 1) : apparent KD of MS2 coat protein came out at 457

Bench note, MS2 coat protein: UGCAGACGAGGAUAUAGAUUUAGAUACAUGAGGAUCACCCAUGUAUAGAUGUAUUUAGAUUUAGAAGGCGUCUGCU [E5/13-A4] (Eterna round: R97, puzzle: Exclusion 5) , apparent KD of MS2 coat protein reads 156

# return apparent KD of MS2 coat protein for each item in the list
1. GUCUUCAUGACAUGAGGAUCACCCAUGUGUUAUAUGUUAACUAAGGAUAUAUUUUUAAUGUUGAGAUAGAAGGUAGUUUCGGUC [JR_ExcNG3_Sub091] (Eterna round: R96, puzzle: Exclusion NG 3)
2. UUUAAUUUAAUUAAGAUCACAUGAGGAUCACCCAUGUAAUUAUAGGAUAUCAGCUCGAUUAGAGCUGAGAAGGAUAAUUACAUA [ExNG3/5-A1] (Eterna round: R96, puzzle: Exclusion NG 3)
3. AUUUUGUGAGGAUAUUAGUUUUAUAAUUUUAUUAGUUUAGCUGAGAAGGCACAUGAGGAUCACCCAUGUAAAUC [JR_Ex4_Sub045] (Eterna round: R97, puzzle: Exclusion 4)
4. AAUCAUGAACGAGCUUUUUACAUGAGGAUCACCCAUGUCCUCUGCUCGUCUUGUCUUGGGCUUUUUUUGGGUUCGGG [-22.4, -44.7 kcal, A 16%] (Eterna round: R97, puzzle: Sensor, turn-off variant 1)
5. ACUUAUAGAGGAUAUACAGAUUAUUACAUGAGGAUCACCCAUGUUCUUCAAUGUAUAUAUGUAGAAGGCUAAGGAA [JL-ex5-4.23 Malcolm mod] (Eterna round: R97, puzzle: Exclusion 5)

Reply:
1: 120; 2: 105; 3: 42.5; 4: 320; 5: 381

UUUAACGAUGAGGAUAUAUGAUAUCAAAGCAUCAUAGAAGGCAUCACAUGAGGAUCACCCAUGUGAUCUUCUUG [Mat - Exclusion 6 - JL Mod - D28] (Eterna round: R97, puzzle: Exclusion 6) on MS2 coat protein gives apparent KD of MS2 coat protein = 94

* * *

test system: K4 kissing-loop RNA reporter; experiment: apparent KD of K4 kissing-loop reporter; higher = weaker reporter binding; conditions: Eterna round: R107; input ligand: arginine 13.2 mM;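 further: bound reporter read as fluorescence of individual clusters on recovered sequencing chips by microscopy, with normalized cluster intensities fitted with a binding model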
True means recorded apparent KD of K4 kissing-loop reporter is 0.2 µM or above; False means it is below 0.2 µM.

Ask: Hi team, for `UCCUAGGCUCGAAAGAGCCUAGGUAAGACUCAGGAUAUCUGGAAACAGAGAAGGGAGCUACUAGUGAUGUUAGGAAUUCCCAUUU` , is the recorded apparent KD of K4 kissing-loop reporter at or above 0.2 µM?
Reply: False

Ask: Please check the record CUGUUUUAGUCGGCCGCCACUGCAAGUGAUGUUUGGAGUAUUAUGCCGUUUCUGUCCAUUGAACCCAGGACCGGGACCGGAUCGU [theeternabot_exclusion_KL_Trp_B_8] and state if its apparent KD of K4 kissing-loop reporter is at or above 0.2 µM.
Reply: False

Ask: Kindly determine if apparent KD of K4 kissing-loop reporter recorded for UCGUCUGUGUGAGGAUAUCCAAGCGAGCUGCGUAAAGGCGCGGCGUUUGGAGUGAUGUUCCAGGCAGGAGAAGGCGCACGGGCUU [Maleisar] is above or exactly 0.2 µM.
Reply: True

Ask: Does AGGUCCGAGCCCGGAAGGGCUCGGACCUGUUAGGAUAUGACGUUAUUCAGAAGGGAUGGGUGGAGUGAUGUUCCACCCGAGAGGG [#2 Same State - FMN A Attempt #17 (HarryS)] have a reported apparent KD of K4 kissing-loop reporter of at least 0.2 µM?
Reply: False

Ask: Is the recorded value of apparent KD of K4 kissing-loop reporter equal to or greater than 0.2 µM for this sequence? CUCGUGGGUUUGAGAGGGCUUGUGGGAAGUGAGGAUAUUUAGGGAGAAAGAAGGCACUAUAGAAUAUAGUGAUGUUAUAUAAGGG [SSFMNA.N]
Reply: False
